system: Caco-2; assay: Cytotoxicity of α-MG; format: cell-based, human; details: read-out: IC50 (cytotoxicity); Caco-2, 4 h, Tween 40 delivery
REPORTED_ENDPOINT: IC50

Prompt: Which measured IC50 value corresponds to "COc1c(O)cc2oc3cc(O)c(CC=C(C)C)c(O)c3c(=O)c2c1CC=C(C)C" ?
Response: > 80 µM

---

test system: HT-29; assay: Cytotoxicity of α-MG; format: cell-based, human; conditions: read-out: IC50 (cytotoxicity); HT-29, 24 h, Tween 40 delivery
REPORTED_ENDPOINT: pIC50
Give bare numbers, as −log10 of the molar value.

Prompt: Param item = "COc1c(O)cc2oc3cc(O)c(CC=C(C)C)c(O)c3c(=O)c2c1CC=C(C)C" ; retrieve measured pIC50.
Response: 3.74
